System: RARb:RXRa (NR concentration 270 nM, RXRa partner concentration 90 nM)
protocol-description: PBM binding z-score (relative to random genomic background probes); higher = stronger binding; sequences stand for … in GC…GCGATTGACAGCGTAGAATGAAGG
For each of the sequences below, state its PBM binding z-score.

Using known records, supply PBM binding z-score for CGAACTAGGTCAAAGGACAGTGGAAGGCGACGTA 3.93

# return recorded PBM binding z-score for entry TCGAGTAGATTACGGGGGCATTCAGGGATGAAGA 1.37

Identify the reported PBM binding z-score for the following entry. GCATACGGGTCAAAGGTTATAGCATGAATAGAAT 4.49

Identify the reported PBM binding z-score for the following entry. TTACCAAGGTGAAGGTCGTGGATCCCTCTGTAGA 2.4

For the sequence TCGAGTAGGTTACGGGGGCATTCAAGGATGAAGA , give its reported PBM binding z-score. 2.59

Please supply the value of reported PBM binding z-score for the item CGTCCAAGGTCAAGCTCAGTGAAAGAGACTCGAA 5.27

Could you please provide reported PBM binding z-score for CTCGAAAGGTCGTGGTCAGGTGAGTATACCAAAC ? Thanks! 4.04

State its PBM binding z-score for this sequence: TCTCGGAGGACACGAAAGGTCTGAGCTCGACATC 1.7

Retrieve PBM binding z-score measured for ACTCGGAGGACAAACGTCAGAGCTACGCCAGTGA and print it. 0.951

Hello, please tell me recorded PBM binding z-score for this one: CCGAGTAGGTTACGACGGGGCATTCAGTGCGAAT 1.23

====

Tested on: PPARg:RXRa 90nM:30nM, anti-RXR (NR concentration 90 nM, RXRa partner concentration 30 nM)
protocol-description: PBM binding z-score (relative to random genomic background probes); higher = stronger binding; sequences stand for … in GC…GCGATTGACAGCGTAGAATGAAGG
endpoint-name: PBM binding z-score
Answer with a number only.

Query PBM binding z-score for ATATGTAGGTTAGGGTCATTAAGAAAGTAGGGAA 6.14

Annotate the sequence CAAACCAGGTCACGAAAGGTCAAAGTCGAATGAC with its measured PBM binding z-score. 7.6

Read off the recorded PBM binding z-score for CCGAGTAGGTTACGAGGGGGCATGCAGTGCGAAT 2.32

Specify reported PBM binding z-score for the sequence shown: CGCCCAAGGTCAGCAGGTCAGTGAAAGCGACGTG 2.98

Return PBM binding z-score (reported value) for this sequence: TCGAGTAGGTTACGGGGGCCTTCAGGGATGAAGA 2.72

Give the value of PBM binding z-score reported for the following: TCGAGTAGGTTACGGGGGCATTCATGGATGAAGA 4.94

Input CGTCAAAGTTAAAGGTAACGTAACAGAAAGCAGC , output reported PBM binding z-score. 1.65

Return the recorded PBM binding z-score value; entry: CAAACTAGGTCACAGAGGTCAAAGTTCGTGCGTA 8.5

Respond only with PBM binding z-score recorded for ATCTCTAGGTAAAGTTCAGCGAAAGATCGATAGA 4.27

Let me know recorded PBM binding z-score for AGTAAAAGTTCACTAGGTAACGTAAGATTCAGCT , thanks. 4.23

Identify measured PBM binding z-score associated with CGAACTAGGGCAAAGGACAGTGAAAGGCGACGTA 8.74

Please look at this sequence and report its PBM binding z-score: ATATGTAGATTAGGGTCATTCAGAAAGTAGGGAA 2.69

====

System: PXR homodimer (NR concentration 270 nM)
protocol-description: PBM binding z-score (relative to random genomic background probes); higher = stronger binding; sequences stand for … in GC…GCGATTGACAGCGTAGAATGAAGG
endpoint-name: PBM binding z-score
Answer as a number with no unit attached.

Supply measured PBM binding z-score of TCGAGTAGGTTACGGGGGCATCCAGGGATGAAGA in your reply. 1.02

State its PBM binding z-score for this sequence: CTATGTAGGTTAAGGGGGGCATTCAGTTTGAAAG 8.89

Determine its reported PBM binding z-score: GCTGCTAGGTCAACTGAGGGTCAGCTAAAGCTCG -0.492

Please give the documented PBM binding z-score of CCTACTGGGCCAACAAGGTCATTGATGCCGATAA 3.62

Hello, please tell me recorded PBM binding z-score for this one: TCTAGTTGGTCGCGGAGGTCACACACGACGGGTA 1.42

Give recorded PBM binding z-score. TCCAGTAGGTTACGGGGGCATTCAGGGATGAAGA 1.9

Answer with the recorded PBM binding z-score of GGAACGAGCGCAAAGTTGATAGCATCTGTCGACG only. -0.719

Read off the recorded PBM binding z-score for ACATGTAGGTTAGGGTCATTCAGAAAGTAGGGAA 2.63

Note PBM binding z-score for the sequence shown: CAAACTAGGTCACAGAGGACAAAGTCCGTGCGTA 2.3

Note PBM binding z-score for the sequence shown: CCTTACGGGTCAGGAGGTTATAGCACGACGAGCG 0.19

Give recorded PBM binding z-score. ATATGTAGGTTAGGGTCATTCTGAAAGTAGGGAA 1.87

Provide PBM binding z-score value for the following sequence: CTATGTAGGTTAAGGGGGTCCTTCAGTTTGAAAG 1.68

Query PBM binding z-score for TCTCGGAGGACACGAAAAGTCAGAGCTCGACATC -0.142

Give PBM binding z-score for the following sequence: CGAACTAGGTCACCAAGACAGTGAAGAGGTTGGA -0.2

Look up and report measured PBM binding z-score for this entry: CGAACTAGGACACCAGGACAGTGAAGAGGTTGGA -0.233

Kindly indicate its recorded PBM binding z-score. Item: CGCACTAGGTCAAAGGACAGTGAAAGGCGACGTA 0.0363

Read off the recorded PBM binding z-score for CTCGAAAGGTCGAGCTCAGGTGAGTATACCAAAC -0.325

Give the reported value of PBM binding z-score for this record: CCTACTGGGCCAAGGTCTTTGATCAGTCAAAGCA -0.601

====

Tested on: FXR:RXRa (NR concentration 270 nM, RXRa partner concentration 90 nM)
protocol-description: PBM binding z-score (relative to random genomic background probes); higher = stronger binding; sequences stand for … in GC…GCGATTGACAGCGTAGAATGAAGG
endpoint-name: PBM binding z-score
Number only, no unit.

Assign PBM binding z-score to the following record: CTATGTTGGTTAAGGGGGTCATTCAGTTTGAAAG 4.6

For the sequence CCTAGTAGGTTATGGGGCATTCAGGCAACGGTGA , report PBM binding z-score. 0.561

# return recorded PBM binding z-score for input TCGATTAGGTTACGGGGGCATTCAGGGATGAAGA 3.28

Determine from records and report PBM binding z-score for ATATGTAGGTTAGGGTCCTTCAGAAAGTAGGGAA 0.884

For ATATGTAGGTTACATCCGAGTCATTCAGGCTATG , write its PBM binding z-score. 0.413

State its PBM binding z-score for this sequence: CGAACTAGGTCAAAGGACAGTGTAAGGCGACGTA 3.76

Consider the sequence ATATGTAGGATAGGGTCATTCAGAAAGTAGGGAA and give its recorded PBM binding z-score. 3.78

Retrieve PBM binding z-score measured for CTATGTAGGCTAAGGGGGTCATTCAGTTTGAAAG and print it. 3.71

====

System: VDR homodimer (NR concentration 270 nM)
protocol-description: PBM binding z-score (relative to random genomic background probes); higher = stronger binding; sequences stand for … in GC…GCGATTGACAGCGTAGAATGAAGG
endpoint-name: PBM binding z-score
No unit in the answer, please; the number alone is enough.

Item ACTAGTTGGTAAGCTGAGGTCACACACAATTCGG : provide PBM binding z-score 3.29

Please report PBM binding z-score for the following sequence: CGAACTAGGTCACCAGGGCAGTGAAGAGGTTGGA 0.712

Note PBM binding z-score for the sequence shown: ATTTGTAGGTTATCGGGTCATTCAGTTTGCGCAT 4.42

Look up and report measured PBM binding z-score for this entry: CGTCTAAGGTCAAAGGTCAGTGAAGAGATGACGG 3.65

Supply reported PBM binding z-score belonging to this sequence: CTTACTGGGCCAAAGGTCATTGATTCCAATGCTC 2.79

Report measured PBM binding z-score; entry is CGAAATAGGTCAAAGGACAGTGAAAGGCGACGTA 0.355

Please report the measured PBM binding z-score for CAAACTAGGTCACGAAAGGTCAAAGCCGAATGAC 3.58

Please list PBM binding z-score recorded for the sequence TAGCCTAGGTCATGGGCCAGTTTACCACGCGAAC 0.669

Provide measured PBM binding z-score value, entry: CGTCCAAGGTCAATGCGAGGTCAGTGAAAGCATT 4.73

Return PBM binding z-score (reported value) for this sequence: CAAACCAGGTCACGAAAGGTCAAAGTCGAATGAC 4.47

In one line, give reported PBM binding z-score of the entry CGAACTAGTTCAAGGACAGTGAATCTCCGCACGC . 0.883

In one line, give reported PBM binding z-score of the entry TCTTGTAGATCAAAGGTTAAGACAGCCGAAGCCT . 0.141

Supply measured PBM binding z-score of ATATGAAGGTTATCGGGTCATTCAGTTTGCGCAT in your reply. 4.06

Indicate the recorded PBM binding z-score value for this sequence: CCTAGCAGACCAATCTGGGTCACTCAAGGCTTGA 0.0917

Give recorded PBM binding z-score. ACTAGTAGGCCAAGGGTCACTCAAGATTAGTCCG 1.36

# return recorded PBM binding z-score for entry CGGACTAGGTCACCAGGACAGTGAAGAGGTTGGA 0.337

Supply reported PBM binding z-score belonging to this sequence: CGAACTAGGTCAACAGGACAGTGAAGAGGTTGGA 0.504

Please indicate PBM binding z-score recorded for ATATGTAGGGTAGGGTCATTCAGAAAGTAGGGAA 4.73

Annotate the sequence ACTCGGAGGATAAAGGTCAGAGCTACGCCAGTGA with its measured PBM binding z-score. 0.801

For the sequence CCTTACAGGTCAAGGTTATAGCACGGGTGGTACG , report PBM binding z-score. 1.73

Quickly give me recorded PBM binding z-score for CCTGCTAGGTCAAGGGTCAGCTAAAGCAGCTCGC 1.03

Supply PBM binding z-score value. Item: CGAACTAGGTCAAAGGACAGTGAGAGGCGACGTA 0.723

Specify measured PBM binding z-score for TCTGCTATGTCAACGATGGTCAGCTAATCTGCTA . -1.12

Identify measured PBM binding z-score corresponding to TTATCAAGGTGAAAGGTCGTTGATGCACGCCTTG 1.54

# return recorded PBM binding z-score for input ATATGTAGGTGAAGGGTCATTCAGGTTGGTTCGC 4.34

Query PBM binding z-score for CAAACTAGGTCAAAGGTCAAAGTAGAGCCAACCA 2.99

Supply measured PBM binding z-score of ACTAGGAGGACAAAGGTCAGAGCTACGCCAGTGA in your reply. 0.936

Identify the reported PBM binding z-score for the following entry. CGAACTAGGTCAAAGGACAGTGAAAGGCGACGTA 0.47

Provide only the value of recorded PBM binding z-score for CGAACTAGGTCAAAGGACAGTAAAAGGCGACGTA 0.392

Supply measured PBM binding z-score of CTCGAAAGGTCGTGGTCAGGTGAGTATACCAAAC in your reply. 1.13

Respond only with PBM binding z-score recorded for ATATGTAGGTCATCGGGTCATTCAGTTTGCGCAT 5.1

Return the recorded PBM binding z-score value; entry: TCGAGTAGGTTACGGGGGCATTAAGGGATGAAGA 2.81

// Input: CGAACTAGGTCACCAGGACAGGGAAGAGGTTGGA . Output its PBM binding z-score only. 0.549

Please report PBM binding z-score for the following sequence: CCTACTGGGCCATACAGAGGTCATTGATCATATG 4.19

Determine its reported PBM binding z-score: CCGACTGGGGCAAAGGTTACCACACTCAGTACGA 0.177

Return PBM binding z-score for the following sequence: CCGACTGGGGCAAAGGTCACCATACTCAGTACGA 1.55

Give recorded PBM binding z-score. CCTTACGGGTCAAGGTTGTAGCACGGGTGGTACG 1.18

Report PBM binding z-score for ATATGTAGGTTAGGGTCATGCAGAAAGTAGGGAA 2.78

Specify measured PBM binding z-score for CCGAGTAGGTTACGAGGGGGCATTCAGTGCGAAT . 3.79

Complete the entry with PBM binding z-score for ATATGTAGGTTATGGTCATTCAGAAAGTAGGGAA 0.656

Give the reported value of PBM binding z-score for this record: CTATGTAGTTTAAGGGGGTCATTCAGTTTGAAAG 7.03

Please report the measured PBM binding z-score for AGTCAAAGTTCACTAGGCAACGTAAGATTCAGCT 3.61

Give reported PBM binding z-score value for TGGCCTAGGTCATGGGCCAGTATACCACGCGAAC -0.0403

Give me measured PBM binding z-score, please, for this sequence: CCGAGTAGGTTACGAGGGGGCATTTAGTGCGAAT 2.81
